Where do the numbers come from? From ChEMBL document CHEMBL1134958.

Would you mind telling me the reported Ratio of each entry?
- assay comment: Ratio of inhibitory activities against human tryptase to that of human urokinase plasminogen activator (microPa)
Could you respond with only the numeric value?

In: # return recorded Ratio for entry N=C(N)N1CCCC(C[C@H]2C(=O)N(C(=O)N3CCN(C(=O)CCCCCC4CCCCC4)CC3)[C@@H]2C(=O)O)C1 (some centres undefined)
Out: 12100

In: Item "CC(C)C(OC(=O)N1CCN(C(=O)N2C(=O)[C@H](CCCN=C(N)N)[C@H]2C(=O)O)CC1)C(C)C" : provide Ratio
Out: 843

In: Return the recorded Ratio value; entry: "CC(C)C(OC(=O)N1CCN(C(=O)N2C(=O)[C@H](CC3CN(C(=N)N)C3)[C@H]2C(=O)O)CC1)C(C)C"
Out: 862
